Biological target: Carbonic anhydrase 1 (Homo sapiens) (UniProt P00915)
Sequence (P00915 2-261 limits assumed): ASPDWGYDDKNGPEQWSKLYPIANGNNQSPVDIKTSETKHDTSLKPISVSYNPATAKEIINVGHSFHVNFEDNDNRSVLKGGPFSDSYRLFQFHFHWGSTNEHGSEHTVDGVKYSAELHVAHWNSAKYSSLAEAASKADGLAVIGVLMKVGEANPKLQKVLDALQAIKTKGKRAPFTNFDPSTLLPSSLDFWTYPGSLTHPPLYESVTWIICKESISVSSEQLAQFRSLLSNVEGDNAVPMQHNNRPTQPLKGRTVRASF
Assay: Maximal activatory effect against human carbonic anhydrase I (hCA I) at a concentration of 1 uM
// reported Activity per item

System Carbonic anhydrase 1 (Homo sapiens) (UniProt P00915). Read-out Activity. Item CNCCC(Oc1ccc(C(F)(F)F)cc1)c1ccccc1 (centres undefined) . Report value. 175%

System Carbonic anhydrase 1 (Homo sapiens) (UniProt P00915). Read-out Activity. Item CN(C)CCCC1(c2ccc(F)cc2)OCc2cc(C#N)ccc21 (centres undefined) . Report value. 134%

System Carbonic anhydrase 1 (Homo sapiens) (UniProt P00915). Read-out Activity. Item CN[C@H]1CC[C@@H](c2ccc(Cl)c(Cl)c2)c2ccccc21 . Report value. 145%

System Carbonic anhydrase 1 (Homo sapiens) (UniProt P00915). Read-out Activity. Item NCCc1c[nH]cn1 . Report value. 165%

Data provenance is ChEMBL document CHEMBL1136165.
